Measured growth inhibition of individual entries
- Procedure Details: NCI Yeast Anticancer Drug Screen. Data for the sgs1 mgt1 strain (AID 161);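 further: 0% = growth of cultures given vehicle only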
- Recorded Conditions: S. cerevisiae sgs1 mgt1 strain, at 50.0 µM, hits give high values
- Procedure: Growth inhibition of yeast strains with defined genetic alterations is measured as a screen for potential anti-cancer activity. Selected strains with alterations in DNA damage repair or cell cycle control were exposed to compounds and growth inhibition was measured relative to vehicle treated controls. The strain used in this assay is sgs1 mgt1
About 79,000 compounds went through this panel and 15% of them were active in at least one assay; those are over-represented in the sample as a whole.
Provide only the numeric value, understood in %.

Ask: Quick check: growth inhibition of C=C(C)C(O)C(O)C(=C)C (stereo unspecified) ?
Reply: -15.6

Ask: Request the reported growth inhibition associated with Fc1ccccc1N=Cc1ccc(C=Nc2ccccc2F)cc1
Reply: 23.9

Ask: Any idea what growth inhibition was measured for O=C1CCCNc2c(Br)cc(Br)cc21 ?
Reply: 14.2

Ask: Item under review: CC(=O)Nc1ccccc1NOC(=O)c1ccccc1NC(C)=O . Reported growth inhibition?
Reply: 4.45

---
Ask: For the compound O=C1OC(c2ccccc2)=C/C1=C/c1ccc(Cl)cc1 , what growth inhibition is on record?
Reply: -6.65

Ask: Recorded growth inhibition of COc1ccc(C(C)=C2C=C(C(C)(C)C)C(=O)C(C(C)(C)C)=C2)cc1 , please.
Reply: -17.4
